Values compiled from patent US20260258420A1.

Recorded HPV positive Sensitive (number of cell lines) for the following compounds
# Test system: 16 HPV-positive HNSCC and cervical squamous cancer cell lines
# Assay text: High-throughput drug screen (HTDS), cell death by AOC_LD, HPV-positive cell lines
# Format: cell-based
# Conditions: sensitive = AOC_LD greater than 0
// return just the number, without any unit appended

CNC(=O)c1ccccc1Sc1ccc2c(/C=C/c3ccccn3)n[nH]c2c1 [AXITINIB] :: 8
O=C(Nc1cccc(Nc2ncc(Br)c(NCCc3cnc[nH]3)n2)c1)N1CCCC1 [BX912] :: 8

Please report the measured HPV positive Sensitive (number of cell lines) for CC(=O)NCC(=O)N1[C@@H]2CC[C@H]1c1ccc(Nc3ncc(C(F)(F)F)c(NC4CCC4)n3)cc12 [PF03814735] tested on 16 HPV-positive HNSCC and cervical squamous cancer cell lines.
8
